Value source: the Deep4Chem optical property database

I'd be grateful if you could share measured absorption maximum for these entries.
- METHOD_NOTES: solvent given as SMILES
- MEASUREMENT_SETUP: in CO
One number for each entry, in nm.

[[record]]
compound = "Oc1ccccc1/N=C/c1ccccc1Oc1ccccc1"
numeric_result = 348

[[record]]
compound = "Cc1ccc(C2CC(c3ccc(O)cc3)=NN2c2ccc(S(N)(=O)=O)cc2)cc1 (stereo not drawn)"
numeric_result = 357

[[record]]
compound = "COc1ccc2c(c1)c1c(OC)c3ccccc3c(OC)c1n2C"
numeric_result = 421

[[record]]
compound = "Nc1ccc2c(C(F)(F)F)cc(=O)oc2c1"
numeric_result = 378

[[record]]
compound = "O=C1C=C(Nc2cccc(F)c2)C(=O)c2ccccc21"
numeric_result = 459


Lab note: each compound below needs its absorption maximum filled in.
1. CCOC(=O)COc1ccc(/C=C/c2c(CC)c(C)c3n2[B-](F)(F)[N+]2=C(c4[nH]c(C)c(CC)c4C)c4ccccc4C2=C3C)cc1
2. CC(=O)c1ccc(/C=C/C=C/C2=NC3C(=O)NC(N)=NC3N2[C@H]2C[C@H](O)[C@@H](CO)O2)cc1 (stereo partly drawn)
3. O=c1ccc2cc3ccoc3cc2o1
4. COCCOc1ccc(OCCOC)c(C=O)c1
5. OB(O)c1ccc(-c2ccc(N(c3ccccc3)c3ccccc3)cc2)cc1
6. c1ccc2c(-n3c4ccccc4c4ccccc43)cccc2c1
7. CCC[n+]1ccc(/C=C/c2ccc(N(C)C)cc2)cc1

[666, 388, 300, 348, 326, 323, 479]
